- target-or-test-system: MK2 (Homo sapiens)
- Sequence (P49137 whole entry): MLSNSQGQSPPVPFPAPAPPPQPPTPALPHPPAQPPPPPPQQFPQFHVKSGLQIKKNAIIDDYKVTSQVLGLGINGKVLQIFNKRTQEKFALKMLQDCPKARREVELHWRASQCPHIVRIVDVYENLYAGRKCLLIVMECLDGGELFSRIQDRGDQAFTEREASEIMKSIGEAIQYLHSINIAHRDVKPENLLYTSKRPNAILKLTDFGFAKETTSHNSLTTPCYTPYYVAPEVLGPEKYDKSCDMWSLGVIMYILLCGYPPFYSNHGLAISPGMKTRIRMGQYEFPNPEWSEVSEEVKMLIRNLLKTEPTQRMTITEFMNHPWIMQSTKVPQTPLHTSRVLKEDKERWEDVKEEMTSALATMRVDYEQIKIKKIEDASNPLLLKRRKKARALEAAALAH
- test-description: Omnia fluorescence-based kinase activity assay for MAPKAP-K2 (reaction velocity)
- Type: biochemical
- Parameters: purchased Invitrogen
- condition-parameters: 100 μM peptide; percentage change in MK2 reaction velocity versus unsubstituted KALNRQLGVAA at 100 μM; SD of three samples
Non-standard residues stand in square brackets, D forms with d. No end group written: not given here.
reported-metric: percent change in MK2 reaction velocity versus unsubstituted peptide

Here's what some known entries look like.
- substance: "KALNRdQLGVAA (KALNR[dQ]LGVAA-NH2) [therapeutic domain, D-amino acid substitution]"
  measurement: "+176(5) %"
- substance: "KALNRQLAVAA [therapeutic domain, alanine substitution]"
  measurement: "−28(5) %"
- substance: "KALNdRQLGVAA (KALN[dR]QLGVAA-NH2) [therapeutic domain, D-amino acid substitution]"
  measurement: "+206(7) %"
- substance: "KALNRQAGVAA [therapeutic domain, alanine substitution]"
  measurement: "+18(7) %"
- substance: "KAdLNRQLGVAA (KA[dL]NRQLGVAA-NH2) [therapeutic domain, D-amino acid substitution]"
  measurement: "46(7) %"

Bench note, MK2 (Homo sapiens): KALNRQLGAAA [therapeutic domain, alanine substitution] , percent change in MK2 reaction velocity versus unsubstituted peptide reads +273(22) %

Bench note, MK2 (Homo sapiens): YGRKKRRQRRR [protein transduction domain peptide, reference compound] , percent change in MK2 reaction velocity versus unsubstituted peptide reads +44(17) %

Bench note, MK2 (Homo sapiens): WLRRIKAWLRRIKALNRQLGVAA , percent change in MK2 reaction velocity versus unsubstituted peptide reads −132(10) %

Bench note, MK2 (Homo sapiens): KALARQLGVAA [therapeutic domain, alanine substitution] , percent change in MK2 reaction velocity versus unsubstituted peptide reads −61(2) %

The reported numbers originate from patent US9327008B2.
